assay: in vivo; settings: female, Crl:CD(SD), rat, 70 ug/kg, Cmax
readout.type: Cmax (ng/mL)

{"columns": ["smiles.input", "display.unit", "experimental.value"],
 "data": [
  ["COCCc1ccc(NC(=O)c2ccccc2NS(C)(=O)=O)cc1", "ng/mL", 19.5]
]}

* * *

assay: in vivo; conditions: female, beagle, dog, iv
readout.type: clearance

{"columns": ["molecule", "experimental.value"],
 "data": [
  ["COCCc1ccc(NC(=O)c2ccccc2NS(C)(=O)=O)cc1 [Compound A]", "8.2 to 16.4 mL/min/kg"]
]}

* * *

test: Intra-articular single dose pharmacokinetics study in rat; type: in vivo; settings: rat, plasma, 1.05 ug; single IA dose 1.05 μg/knee

{"columns": ["compound", "Cmax (ng/mL)"],
 "data": [
  ["COCCc1ccc(NC(=O)c2ccccc2NS(C)(=O)=O)cc1 [Compound A]", 53.3]
]}

* * *

experiment: Intra-articular single dose pharmacokinetics study in rat; format: in vivo; details: rat, plasma, 1.05 ug; single IA dose 1.05 μg/knee; read-out: plasma t1/2 (converted)
readout.type: half-life

{"columns": ["smiles.input", "experimental.value"],
 "data": [
  ["COCCc1ccc(NC(=O)c2ccccc2NS(C)(=O)=O)cc1", "28.9 min"]
]}

* * *

test: Intra-articular acute toxicity study in the Beagle dog (toxicokinetics); conditions: male, beagle, dog, plasma, 100 μg/knee, AUC0-t, male dogs, single IA 100 μg/knee, Mean

{"columns": ["molecule", "display.unit", "AUC(0-t)"],
 "data": [
  ["COCCc1ccc(NC(=O)c2ccccc2NS(C)(=O)=O)cc1 [Compound A]", "ng·h/mL", 12.3]
]}

* * *

assay: in vivo; design: species or system Crl:CD(SD) rat; conditions: female, Crl:CD(SD), rat, iv, 2.5 mg/kg, t1/2

{"columns": ["smiles.input", "display.unit", "half-life"],
 "data": [
  ["COCCc1ccc(NC(=O)c2ccccc2NS(C)(=O)=O)cc1", "min", 37.8]
]}

* * *

test: in vivo; conditions: male, Crl:CD(SD), rat, 140 ug/kg, Cmax

{"columns": ["smiles.input", "Cmax / ng/mL"],
 "data": [
  ["COCCc1ccc(NC(=O)c2ccccc2NS(C)(=O)=O)cc1", 23.5]
]}

* * *

assay: in vivo; conditions: male, Crl:CD(SD), rat, 200 ug/kg, AUC0-t
readout.type: AUC(0-t)

{"columns": ["compound", "experimental.value"],
 "data": [
  ["COCCc1ccc(NC(=O)c2ccccc2NS(C)(=O)=O)cc1 [Compound A]", "22.9 ng·h/mL"]
]}

* * *

experiment: in vivo; conditions: male, beagle, dog, 70 μg/knee/week

{"columns": ["smiles.input", "AUC(0-t) / ng·h/mL"],
 "data": [
  ["COCCc1ccc(NC(=O)c2ccccc2NS(C)(=O)=O)cc1", 13.8]
]}

* * *

experiment: in vivo; conditions: female, beagle, dog, iv, 0.125 mg/kg, AUC0-t

{"columns": ["smiles.input", "display.unit", "AUC(0-t)"],
 "data": [
  ["COCCc1ccc(NC(=O)c2ccccc2NS(C)(=O)=O)cc1", "ng·h/mL", 178]
]}

* * *

assay: Intravenous acute toxicity study in Crl:CD(SD) rat (toxicokinetics); format: in vivo; details: Crl:CD(SD), rat, plasma; female rats, single IV 1 mg/kg, mean

{"columns": ["compound", "display.unit", "half-life"],
 "data": [
  ["COCCc1ccc(NC(=O)c2ccccc2NS(C)(=O)=O)cc1 [Compound A]", "min", 28.8]
]}
